MIC Enterococcus faecalis (GC 3059) values, listed per item
- Tested on: Enterococcus sp.
- methodDescription: In vitro antibacterial evaluation: minimum inhibitory concentration (MIC), broth dilution method
- Type: cell-based
- condition: strain GC 3059

Some compounds with known MIC Enterococcus faecalis (GC 3059) results, for comparison:
{"compound": "CCCCCCCN1CC(C(O)C2NC(=O)C(C(O)C3CNC(=N)N3)NC(=O)C(Cc3ccc(OC4OC(CO)C(OC5OC6COC7(OC6C(O)C5O)C5CC6CC(C5)CC7C6)C(O)C4O)cc3)NC(=O)C(C(C)c3ccccc3)NC(=O)CNC(=O)C(CO)NC2=O)N(C2OC(CO)C(O)C(O)C2O)C1=N (stereo not shown)", "MIC Enterococcus faecalis (GC 3059)": "4 µg/mL"}
{"compound": "Cc1cc(C2OCC3OC(OC4C(CO)OC(Oc5ccc(CC6NC(=O)C(C(C)c7ccccc7)NC(=O)CNC(=O)C(CO)NC(=O)C(C(O)C7CNC(=N)N7C7OC(CO)C(O)C(O)C7O)NC(=O)C(C(O)C7CNC(=N)N7)NC6=O)cc5)C(O)C4O)C(O)C(O)C3O2)ccc1[N+](=O)[O-] (stereo not shown)", "MIC Enterococcus faecalis (GC 3059)": "32 µg/mL"}
{"compound": "CC(c1ccccc1)C1NC(=O)CNC(=O)C(CO)NC(=O)C(C(O)C2CNC(=N)N2C2OC(CO)C(O)C(O)C2O)NC(=O)C(C(O)C2CNC(=N)N2)NC(=O)C(Cc2ccc(OC3OC(CO)C(OC4OC5COC(c6cccc(OCc7ccc([N+](=O)[O-])cc7)c6)OC5C(O)C4O)C(O)C3O)cc2)NC1=O (stereo not shown)", "MIC Enterococcus faecalis (GC 3059)": ">64 µg/mL"}

Asked: # input compound: CC(c1ccccc1)C1NC(=O)CNC(=O)C(CO)NC(=O)C(C(O)C2CNC(=N)N2C2OC(CO)C(O)C(O)C2O)NC(=O)C(C(O)C2CNC(=N)N2)NC(=O)C(Cc2ccc(OC3OC(CO)C(OC4OC5COC(c6ccc7ccccc7c6)OC5C(O)C4O)C(O)C3O)cc2)NC1=O (stereo not shown) ; wanted: its MIC Enterococcus faecalis (GC 3059)
Given back: 1 µg/mL

---

- Test system: Staphylococcus sp.
- methodDescription: In vitro antibacterial evaluation: minimum inhibitory concentration (MIC), broth dilution method
- Type: cell-based
- condition: broth dilution, 18 hours at 35° C.
endpoint: MIC Staphylococcus aureus (GC 4544) (µg/mL)
Entry rule: numbers only, all in µg/mL.

Asked: # input compound: CC(c1ccccc1)C1NC(=O)CNC(=O)C(CO)NC(=O)C(C(O)C2CN(Cc3ccc(-c4ccccc4)cc3)C(=N)N2C2OC(CO)C(O)C(O)C2O)NC(=O)C(C(O)C2CNC(=NCc3ccc(-c4ccccc4)cc3)N2Cc2ccc(-c3ccccc3)cc2)NC(=O)C(Cc2ccc(OC3OC(CO)C(OC4OC(CO)C(O)C(O)C4O)C(O)C3O)cc2)NC1=O (stereo not drawn) [Example 66] ; wanted: its MIC Staphylococcus aureus (GC 4544)
Given back: 8

Asked: # input compound: CC(c1ccccc1)C1NC(=O)CNC(=O)C(CO)NC(=O)C(CC2CN(Cc3ccccc3)C(=N)N2C2OC(CO)C(O)C(O)C2O)NC(=O)C(CC2CNC(=N)N2)NC(=O)C(Cc2ccc(OC3OC(CO)C(OC4OC5COC6(OC5C(O)C4O)C4CC5CC(C4)CC6C5)C(O)C3O)cc2)NC1=O (stereo not drawn) [Example 80] ; wanted: its MIC Staphylococcus aureus (GC 4544)
Given back: 32

Asked: # input compound: CC(C)=CCCC(C)=CCN=C1NCC(C(O)C2NC(=O)C(C(O)C3CNC(=N)N3)NC(=O)C(Cc3ccc(OC4OC(CO)C(OC5OC6COC7(OC6C(O)C5O)C5CC6CC(C5)CC7C6)C(O)C4O)cc3)NC(=O)C(C(C)c3ccccc3)NC(=O)CNC(=O)C(CO)NC2=O)N1C1OC(CO)C(O)C(O)C1O (stereo not drawn) [Example 82] ; wanted: its MIC Staphylococcus aureus (GC 4544)
Given back: 16
